Molecular target: T1, CAPRIN-1 protein expressed on the membrane surface of human cancer cells (human, UniProt Q14444 2-709)
T1 sequence (looked up): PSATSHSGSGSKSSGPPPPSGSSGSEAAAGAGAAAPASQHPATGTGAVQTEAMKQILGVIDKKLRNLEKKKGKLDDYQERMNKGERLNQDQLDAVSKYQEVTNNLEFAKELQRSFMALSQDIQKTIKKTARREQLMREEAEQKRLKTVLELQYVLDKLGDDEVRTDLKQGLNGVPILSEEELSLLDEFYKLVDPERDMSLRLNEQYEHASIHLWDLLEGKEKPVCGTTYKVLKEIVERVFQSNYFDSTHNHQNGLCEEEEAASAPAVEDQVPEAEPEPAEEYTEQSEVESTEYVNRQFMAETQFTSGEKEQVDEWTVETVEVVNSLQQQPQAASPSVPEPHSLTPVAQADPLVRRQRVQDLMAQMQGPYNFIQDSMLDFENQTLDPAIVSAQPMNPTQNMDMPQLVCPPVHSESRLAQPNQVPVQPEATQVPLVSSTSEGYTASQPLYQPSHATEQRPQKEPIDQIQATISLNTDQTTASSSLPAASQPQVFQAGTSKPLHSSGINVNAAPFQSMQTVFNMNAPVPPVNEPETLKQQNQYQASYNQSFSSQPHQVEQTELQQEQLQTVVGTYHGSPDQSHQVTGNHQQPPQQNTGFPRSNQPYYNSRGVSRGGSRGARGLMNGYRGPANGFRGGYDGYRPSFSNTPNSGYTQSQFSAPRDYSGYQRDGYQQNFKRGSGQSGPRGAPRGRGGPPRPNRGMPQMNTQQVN
Test: cell-based or functional assay
measurement-kind: ADCC cytotoxic activity (51Cr release) on A-673

Exercise: Tell me ADCC cytotoxic activity (51Cr release) on A-673 reported for humanized antibody #7 (antibody, V domains shown) VH: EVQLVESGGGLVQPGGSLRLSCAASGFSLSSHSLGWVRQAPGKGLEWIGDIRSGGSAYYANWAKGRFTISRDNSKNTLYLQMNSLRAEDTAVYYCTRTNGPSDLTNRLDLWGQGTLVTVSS VL: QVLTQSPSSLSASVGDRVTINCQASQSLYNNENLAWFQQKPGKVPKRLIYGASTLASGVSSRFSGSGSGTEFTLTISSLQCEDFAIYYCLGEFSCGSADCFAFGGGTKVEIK
Key: ≥ 50%
